Experiment: 14C assay with IPTG-induced recombinant E. coli cells: 14CO2 captured from [14C]-carboxyl-labeled dicamba
Details: induced recombinant E. coli cells, [14C]-carboxyl-labeled dicamba, 14CO2 capture
Assay Endpoint: Dicamba Decarboxylase Activity

Molecule | Result
7 (protein, listed as Legionella pneumophila) MAIVDFETHFITEACIDYLTQRQEVPKLVPELNGAYTMCFTPDVSLFHTSALMEELLSLNEQRLAIMDQAGVTIQVLSLTTINGIDSCPGDENKSTALAREVNDQLYSAIQRHPERFKGFASISPYDVKEGVKELERAISQLGFVGWLTHSNFGEDNYLDDKTYWPLLEAAEGLNIPIYLHPNVPIMREFGKYGFALGGSALGFEFDTALCLMRMILGGVFDAFPKLKIMLGHLGETMPFLMERLDHLYRIPDLKAYRPSIQRIPSEVLRQNVYITTSGRFFVPALRYVLEVMGEDRVLFASDYPMESLLDATRFIQDSDLSNQTKQKIFSINAKNLNLI | No
105 (protein, Deinococcus radiodurans) MAIDFHVHLDLYPDPVAVARACEERQLTVLSVTTTPAAWRGTLALAAGRPHVWTALGFHPEVVSERAADLPWFDRYLPETRFVGEVGLDGSPSLRGTWTQQFAVFQHILRRCEDHGGRILSIHSRRAESEVLNCLEANPRSGTPILHWYSGSVTELRRAISLGCWFSVGPTMVRTQKGAALIRSMPRDRVLTETDGPFLELDGQAALPWDVKSVVEGLSKIWQIPASEVERIVKENVSRLLGTVR | No
56 (protein, Enterobacter aerogenes) MAKIICLEEHYLDSELGRACMPVALEQAPFLGDWGKTVADGHNPDRSRPQIEKNALINAKGADLGSRRLRDMDEAGITLQILSVGGFPQLAPEDEAVTLNTAANDRLAEAVRNHPDRFAAFATLPWAQPKDAENELVRAVEKLGFKGALLNGRPSSCFLDHPDYDSLLSRFNKLNVPLYLHPGLPLKSVQQAYFTGFSAEVNARLSMFGWGWHHEAGIHLLRLMLSGAFDKYPNMQVISGHWGEMLPFWLQRLDDSLPLAATGLSRTLTRTFQEHVYVTPSGMLTLPHFKFIYELMGAERILFSVDYPYQTLDGVKTFIDSLPVNKAEKEAIAFRNAERLLGITA | High
49 (protein, listed as Streptomyces sp.) MAKIIALEEHFSDPAVAKAGAARARALSPGFAASYSPASGLPYSPSPEVLENLAEKRLADMDAGGITMQVLSGLGAQTVPADVAPALVAGSNDKAAAAVRAHPDRFAAFAALPTATPEAAVAELDRSVNELGFVGTLIMGRTEGEFLDAPRFEPILARAAALKVPVFLHPGVPPREITDSNYAAGLPTGIGTRLQTAAWGWHQETAVHFLHLVHSGVLDRYPDLQFILGHWGEMIPFYLDRVDEALPQRATGLDRSFHEYFRENVYLAPSGMWSQAQLRFCLETVPLERIVFAVDYPFIGNEGAVPFLEKAELPQADKRKIAHENAERLLGL | High
